tested on: SF-539 CNS; experiment: NCI tumour cell line growth inhibition, 48 h; in the data active means GI50 below about 0.43 µM; inactive means the rest
Outcomes: yes (active), no (inactive)

compound	discrete.label
CN1CC[C@H](N(C)C(=O)N2CC(c3cc(F)ccc3F)=C[C@@]2(CO)c2ccccc2)[C@H](F)C1	yes
O=c1[nH]c(-c2ccncc2)nc2sc3c(c12)CCCCCC3	no
COc1cc(F)c(F)c(F)c1C(=O)c1cnc(NC2CCN(S(C)(=O)=O)CC2)nc1N	no
CC1SC(c2ccc(OCc3ccccc3)cc2)N(NC(=O)C(O)(c2ccccc2)c2ccccc2)C1=O (stereo unspecified)	no
CCCN1CCCC(c2ccc(Nc3nc(Nc4cc(F)ccc4C(N)=O)c4cc[nH]c4n3)c(OC)c2)C1 (stereo unspecified)	no
C=C(CN1CCc2ccccc2C1)c1ccc(C(=O)Nc2cccc(N)c2)cc1	no
O=c1[nH]c2c(ccc3cnccc32)c2c1CCC2	yes
CCC[CH2][Sn]1([CH2]CCC)[O]C(=O)c2cccnc2[S]1	no
CCCCCCCCCCCCNC(=O)N[C@H](C(=O)N[C@H]1/C=C/OCCNC(=O)/C=C/[C@H](C(C)C)NC1=O)C(C)C	no
CNC(=S)N/N=C/CSC/C=N/NC(=S)NC	no
Cc1n[nH]c(C)c1-c1c(C)n[nH]c1C	no

###

system: NCI/ADR-RES ovarian; test: NCI tumour cell line growth inhibition, 48 h
The compounds listed here are annotated with their TGI.
outcome.measure: TGI

compound	test.system	endpoint.result
Nc1nc(NCc2ccccc2)cc(NCc2ccccc2)n1	NCI/ADR-RES ovarian	15.3 µM
NC(C(=O)O)C(O)c1cnc[nH]1 (centres undefined)	NCI/ADR-RES ovarian	> 100 µM
COc1cc(F)c(F)c(F)c1C(=O)c1cnc(NC2CCN(S(C)(=O)=O)CC2)nc1N	NCI/ADR-RES ovarian	> 25 µM
COc1ccc(C2OC2C(=O)C23CC4CC(CC(C4)C2)C3)cc1 (centres undefined)	NCI/ADR-RES ovarian	> 100 µM
CCN(CC)CCN1C(=O)c2cccc3cc(N)cc(c23)C1=O	NCI/ADR-RES ovarian	58.8 µM
Cc1n[nH]c(C)c1-c1c(C)n[nH]c1C	NCI/ADR-RES ovarian	6.16 µM
COc1ccc2c(c1)OCC1c3cc(OC)ccc3OC21 (centres undefined)	NCI/ADR-RES ovarian	> 100 µM
COC(=O)c1c(O)ccc2c1c1c(n2CCc2ccccc2)C(=O)c2ccccc2C1	NCI/ADR-RES ovarian	53.1 µM
COc1ccc(Cc2nc3cc(C(F)(F)F)ccc3n2C[C@@H]2CCCN3CCCCC23)cc1 (some centres undefined)	NCI/ADR-RES ovarian	30.7 µM
C[C@@H](NC(=O)Nc1cccc(C(=O)Nc2cc(C(C)(C)C)ccc2C(=O)O)n1)c1ccccc1	NCI/ADR-RES ovarian	> 100 µM
Cc1c(S(=O)(=O)/N=C(\NO)Nc2ccc(Cl)cc2)sc2ccc(Cl)cc12	NCI/ADR-RES ovarian	37.9 µM
O=C(c1ccco1)c1c(C(F)(F)F)n([O-])c2cc(Cl)c(Cl)cc2[n+]1=O	NCI/ADR-RES ovarian	1.78 µM
C/C=C/C(C/C=C(\C)CO[Si](C)(C)C(C)(C)C)O[Si](C)(C)C(C)(C)C (centres undefined)	NCI/ADR-RES ovarian	> 100 µM
C=C1C(=O)O[C@H]2[C@H]1CC/C(COC(=O)NCc1ccc(Cn3c(=O)sn(CCCI)c3=O)cc1)=C\CC[C@@]1(C)O[C@@H]21	NCI/ADR-RES ovarian	> 100 µM
COc1cc(Nc2nc(NS(=O)(=O)c3cc(C)c(Cl)cc3S)n[nH]2)cc(OC)c1OC	NCI/ADR-RES ovarian	> 100 µM
COc1ncc(-c2ccc3nc(N)n(-c4ccccc4C(F)(F)F)c(=O)c3c2)cc1S(=O)(=O)Nc1ccc(F)cc1F	NCI/ADR-RES ovarian	13.8 µM
CCc1c(N=[N+]=[N-])c2ccccc2oc1=O	NCI/ADR-RES ovarian	> 100 µM
CC(C)OC(=O)OCOP(=O)(OCOC(=O)OC(C)C)C1CCCN(O)C1=O (centres undefined)	NCI/ADR-RES ovarian	> 100 µM
O=c1[nH]nc(Nc2ccc(Cl)cc2)c2nnn(-c3ccc([N+](=O)[O-])cc3)c12	NCI/ADR-RES ovarian	> 100 µM
COc1cc(N(CCC#N)CCC#N)ccc1/C(N=Nc1cccc([N+](=O)[O-])c1)=N\NC(=O)c1ccc(C)cc1	NCI/ADR-RES ovarian	> 100 µM
C/C(=C/C(=O)N(C)c1ccccc1Cl)O[Si](C(C)C)(C(C)C)C(C)C	NCI/ADR-RES ovarian	39.6 µM
CCOP(=O)(OCC)/C(F)=C/c1ccc(F)cc1	NCI/ADR-RES ovarian	> 100 µM
CC1SC(c2ccc(OCc3ccccc3)cc2)N(NC(=O)C(O)(c2ccccc2)c2ccccc2)C1=O (centres undefined)	NCI/ADR-RES ovarian	17.8 µM
O=C(CNC(=O)c1cccc2ccccc12)Nc1ccccc1Oc1ccc(O)cc1	NCI/ADR-RES ovarian	> 25 µM
Cc1nn(-c2ccccc2)c2c1[C@@H](C)[C@H]1CC3(CC4(C)C[C@@H]3C1(C)c1c(C)nn(-c3ccccc3)c1N4C)N2C (some centres undefined)	NCI/ADR-RES ovarian	> 100 µM
N#CC(C#N)=CNC(=S)Nc1ccc(S(=O)(=O)Nc2nccs2)cc1	NCI/ADR-RES ovarian	> 100 µM
COC(=O)[C@@H](N1C(=O)c2ccccc2C1=O)C1(C)CC(Cl)=NO1 (some centres undefined)	NCI/ADR-RES ovarian	68.2 µM
CC(=O)Nc1ccc2c3c(cc(O)c2c1)N(C(=O)CCCCCCC(=O)Nc1ccc2c4c(cc(O)c2c1)N(C(=O)OC(C)(C)C)CC4CCl)CC3CCl (centres undefined)	NCI/ADR-RES ovarian	> 72 µM
CC(=O)O[C@H]1CC[C@@]2(C)C(=CC[C@@H]3[C@@H]2CC[C@]2(C)C(=O)/C(=C\c4ccccc4)C[C@@H]32)C1	NCI/ADR-RES ovarian	> 100 µM
O=C1C/C(=C\c2ccccc2)C(=O)c2ccccc2N1	NCI/ADR-RES ovarian	54.7 µM
CCN(CC)CCCC(C)Nc1ccnc2cc(OC)ccc12 (centres undefined)	NCI/ADR-RES ovarian	> 100 µM
CCOc1ccc(-c2nc3ccc(-c4nc5ccc(N6CCN(C)CC6)cc5[nH]4)cc3[nH]2)cc1OCC	NCI/ADR-RES ovarian	> 100 µM
Fc1cnccc1-c1nc2ccc3[nH]ncc3c2c2c1CCCC2	NCI/ADR-RES ovarian	> 100 µM
Cc1ccc(CNc2ccc(Cl)cc2NCc2ccc(C)c(O)c2)cc1O	NCI/ADR-RES ovarian	17.8 µM
CC(C)c1cc(C(C)C)c(S(=O)(=O)N/N=C2\CC3CCC2(C)C3(C)C)c(C(C)C)c1 (centres undefined)	NCI/ADR-RES ovarian	> 100 µM
CC[C@@]12CC(C(=O)OC)=C3Nc4ccccc4[C@@]34CCN(C[C@H]3O[C@H]31)[C@@H]24	NCI/ADR-RES ovarian	> 100 µM
NC1=Nc2cc(OCCCCN3Cc4ccccc4C3)c(OCC3CC3)cc2C12CCCC2	NCI/ADR-RES ovarian	3.41 µM
CCOC(=O)c1sc(N)nc1N1CCCC1	NCI/ADR-RES ovarian	> 100 µM
N#Cc1nc(CCC(C(=O)O)N2C(=O)c3ccccc3C2=O)oc1N (centres undefined)	NCI/ADR-RES ovarian	> 100 µM

###

The molecules listed here are annotated with their TGI.
tested on: 786-0 renal; test: NCI tumour cell line growth inhibition, 48 h
outcome.measure: TGI

molecule	outcome.measure	endpoint.result
CC1(C)CC[C@]2(C(=O)O)CC[C@]3(C)C(=CC[C@@H]4[C@@]5(C)C/C(=C/c6cccnc6)[C@H](O)C(C)(C)[C@@H]5CC[C@]43C)[C@@H]2C1	TGI	> 100 µM
CC(=O)Nc1ccc(/C=C/C(=O)c2sc(-n3nc(-c4ccccc4)cc3-c3ccccc3)nc2C)cc1	TGI	> 100 µM
COc1ccc2c(c1)SC1=Nc3sc4cc(OC)ccc4[n+]3CN12	TGI	82.7 µM
CCc1c(N=[N+]=[N-])c2ccccc2oc1=O	TGI	> 100 µM
BrC(/C=N/Nc1nnc(-c2ccccc2)c(-c2ccccc2)n1)C(Br)c1ccccc1 (stereo unspecified)	TGI	> 100 µM
NS(=O)(=O)c1ccc(NCc2cccc3c(=O)c4ccc(Cl)cc4oc23)cc1	TGI	> 100 µM

###

system: M14 melanoma; experiment: NCI tumour cell line growth inhibition, 48 h; in the data active = GI50 below about 0.43 µM; inactive = the rest
Outcomes: active, inactive

compound	discrete.label
COc1ccc(-c2cc(-c3ccc(Cl)cc3)c(C#N)c(=O)n2CCCCCC(=O)Nc2ccccc2N)cc1	inactive
N=C(N)c1ccc(-c2ccc(-c3cccs3)s2)cc1F	inactive
CC(=O)Nc1ccc(S(=O)(=O)N2C(=O)CCC2C(=O)Nc2ccccc2)cc1 (stereo not given)	active
N/C(=N\O)c1cn(C2OC(CO)C(O)C2O)c2ncnc(N)c12 (stereo not given)	active
O[C@@H]1CCCCN1Cc1cc2cc3c(cc2c2cc(OCc4ccccc4)ccc12)OCO3	inactive
Cc1cc(C)c(CNC(=O)c2cc(Cl)c3c(c2C)O[C@@](C)(C2CCC(N(C)C)CC2)O3)c(=O)[nH]1 (stereo not given in full)	inactive
CCOc1ccc(-c2nc3ccc(-c4nc5ccc(N6CCN(C)CC6)cc5[nH]4)cc3[nH]2)cc1OCC	inactive
COc1cc(C(=O)N[C@@H]2CCCN(C)C2)ccc1Nc1ncc2c(n1)N(C1CCCC1)CC(C)(C)C(=O)N2C	active
COC(=O)[C@@H](C)C[C@H](Cc1ccccc1)NC(=O)c1nc([C@@H](C[C@H](C(C)C)N(C)C(=O)[C@@H](NC(=O)[C@H]2CC(=O)CCN2C)C(C)C)OC(C)=O)sc1C(C)C	active
CCC[CH2][Sn]1([CH2]CCC)[O]C(=O)c2cccnc2[S]1	inactive
COc1cc(-c2nn(-c3cccc(NC(=O)NCCNC(=O)c4ccccc4)c3)cc2-c2ccncc2)ccc1Cl	inactive
N#CCC1CCN(c2nc(Nc3ccc(N4CCC(O)CC4)cc3)c3c(=O)[nH]ncc3n2)CC1	active
CC(C)c1c(C(=O)Nc2ccccc2)c(-c2ccccc2)c(-c2ccc(F)cc2)n1CC[C@@H](O)C[C@@H](O)CC(=O)O	inactive
CCN(CC)CCCC(C)Nc1ccnc2cc(OC)ccc12 (stereo not given)	inactive
O=C(c1ccco1)c1c(C(F)(F)F)n([O-])c2cc(Cl)c(Cl)cc2[n+]1=O	inactive
